Target: HIV-1 ZM249 Env (HIV-1)
Experiment: cell-based or functional assay
recorded_metric: IC50, TZM-bl pseudovirus neutralization

Give reported IC50, TZM-bl pseudovirus neutralization value for 1456_A12 (PG16) (TCN-117) (antibody, V domains shown) VH: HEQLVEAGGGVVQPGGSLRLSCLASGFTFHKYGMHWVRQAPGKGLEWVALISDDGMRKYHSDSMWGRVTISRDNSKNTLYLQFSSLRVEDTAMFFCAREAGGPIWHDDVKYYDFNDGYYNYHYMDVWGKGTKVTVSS VL: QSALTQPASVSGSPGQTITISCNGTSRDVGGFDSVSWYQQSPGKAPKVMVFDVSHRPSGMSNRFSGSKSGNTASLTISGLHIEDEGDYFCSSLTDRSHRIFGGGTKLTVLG < 0.01 µg/mL
